Test: Apparent oral clearance in db/db mouse at 10 mg/kg, po administered as single dose by LC-MS/MS system method
Assay type: ADME, organism-based
Design: dose 10 mg/kg, route oral
Settings: in vivo
Measured Attribute: CL/F (mL/min/kg)
Report the figure in mL/min/kg without appending any unit label.

Reported CL/F for CCOc1ccc(Cc2ccc(CC)cc2)cc1[C@@H]1C[C@H](CO)[C@@H](O)[C@H](O)[C@H]1O : what is it? 26.7

----------
Assay: AUC (infinity) in db/db mouse at 10 mg/kg, po administered as single dose by LC-MS/MS system method
Type: ADME, organism-based
Set-up: time infinity, dose 10 mg/kg, route oral
Conditions: plasma
I'd appreciate it if you could supply AUC(0-inf) values for the items below.
Report the figure in ng·h/mL without appending any unit label.

Reported AUC(0-inf) for CCOc1ccc(Cc2ccc(CC)cc2)cc1[C@@H]1C[C@H](CO)[C@@H](O)[C@H](O)[C@H]1O : what is it? 6240

Request: COc1ccc(Cc2ccccc2O[C@@H]2C[C@H](CO)[C@@H](O)[C@H](O)[C@H]2O)cc1 3070

Request: CCOC(=O)OC[C@H]1O[C@@H](Oc2ccccc2Cc2ccc(OC)cc2)[C@H](O)[C@@H](O)[C@@H]1O [SERGLIFLOZIN ETABONATE] 2970
